assayed-system: Cyclin-dependent kinase 2/cyclin E (Homo sapiens, UniProt P24941)
experiment-notes: Inhibitory concentration against cyclin dependent kinase-2 (CDK2)/Cyclin E
assay-metric: IC50 (µM)

P: COc1ccc(CNc2nc(N3CCC(O)CC3)nc3c2ncn3C(C)C)cc1
Q: CC(C)n1cnc2c(Nc3ccc(-c4ccccc4)cc3)nc(N(CCO)CCO)nc21
R: COc1ccc(CNc2nc(N3CCCCC3CO)nc3c2ncn3C(C)C)cc1 (centres undefined)
S: COc1ccc(CNc2nc(N(CCO)CCO)nc3c2ncn3CCO)cc1
Re-order the entries listed above so their IC50 values fall from first to last. I would appreciate it if you listed the labels in the requested order.
R, P, S, Q
(R: 4 µM, P: 2 µM, S: 1 µM, Q: 0.6 µM)

a: CC(O)Nc1nc(NCc2ccc(-c3ccccc3)cc2)c2ncn(C(C)C)c2n1 (centres undefined)
b: COc1ccc(CNc2nc(N(CCO)CCO)nc3c2ncn3Cc2ccc3ccccc3c2)cc1
Input pair: a , b . Output: entry with lower IC50. Write down the label of the entry you select.
a

A: COc1ccc(CNc2nc(NCCO)nc3c2ncn3C)cc1
B: COc1ccc(CNc2nc(NC(C)(O)CO)nc3c2ncn3C(C)C)cc1 (centres undefined)
IC50 comparison. Which is larger, A or B ? Write down the label of the entry you select.
A

A: COc1ccc(CNc2nc(N(CCO)CCO)nc3c2ncn3Cc2ccc([N+](=O)[O-])cc2)cc1
B: FC(F)(F)n1cnc2c(NCc3ccc(Cl)cc3)nc(Cl)nc21
Input pair: A , B . Output: entry with lower IC50. Write down the label of the entry you select.
B
